system: Staphylococcus aureus; assay: Antibacterial activity against Staphylococcus aureus ATCC 25923 by serial dilution method; format: functional
Activity calls are given as the source filed them. No cut-off for these calls is given here.
Reported Metric: MIC

[[record]]
compound = "CC1CCC[C@H]2[C@](C)(CC3=CC(=O)C(Cl)=CC3=O)[C@@H](C)CC[C@]12C (stereo partly specified)"
reported_metric = "MIC"
result = "50 µg/mL"

[[record]]
compound = "CC1=CCC[C@H]2[C@](C)(CC3=CC(=O)C(Sc4ccccc4)=CC3=O)[C@@H](C)CC[C@]12C"
reported_metric = "MIC"
result = "12.5 µg/mL"

[[record]]
compound = "CC1=CCC[C@H]2[C@](C)(CC3=CC(=O)C(SCC(C)C)=CC3=O)[C@@H](C)CC[C@]12C"
reported_metric = "MIC"
result = "50 µg/mL"

[[record]]
compound = "C[C@H]1c2cccc(O)c2C(=O)C2=C(O)[C@]3(O)C(=O)C(C(N)=O)=C(O)[C@@H](N(C)C)[C@@H]3[C@@H](O)[C@@H]21.O"
reported_metric = "MIC"
result = "4 µg/mL"

[[record]]
compound = "CC1=CCC[C@H]2[C@](C)(CC3=CC(=O)C(SC(C)C)=CC3=O)[C@@H](C)CC[C@]12C"
reported_metric = "MIC"
result = "inactive"

[[record]]
compound = "CC1=CCC[C@H]2[C@](C)(CC3=CC(=O)C4=C(SCCS4)C3=O)[C@@H](C)CC[C@]12C"
reported_metric = "MIC"
result = "inactive"

[[record]]
compound = "CCCSC1=CC(=O)C(C[C@]2(C)[C@@H](C)CC[C@]3(C)C(C)=CCC[C@@H]23)=CC1=O"
reported_metric = "MIC"
result = "50 µg/mL"

[[record]]
compound = "CNC1=CC(=O)C(C[C@]2(C)[C@@H](C)CC[C@]3(C)C(C)=CCC[C@@H]23)=CC1=O"
reported_metric = "MIC"
result = "inactive"

[[record]]
compound = "CCCCCCCCSC1=CC(=O)C(C[C@]2(C)[C@@H](C)CC[C@]3(C)C(C)=CCC[C@@H]23)=CC1=O"
reported_metric = "MIC"
result = "inactive"

[[record]]
compound = "CCCCSC1=CC(=O)C(C[C@]2(C)[C@@H](C)CC[C@]3(C)C(C)=CCC[C@@H]23)=CC1=O"
reported_metric = "MIC"
result = "25 µg/mL"

[[record]]
compound = "CC1=CCC[C@H]2[C@](C)(CC3=CC(=O)C(SC(C)(C)C)=CC3=O)[C@@H](C)CC[C@]12C"
reported_metric = "MIC"
result = "50 µg/mL"


====

tested on: Escherichia coli; experiment: Antibacterial activity against Escherichia coli ATCC 35218 by serial dilution method; type: functional
Activity calls are given as the source filed them. The rule behind the calls is not given here.
Reported Metric: MIC

[[record]]
smiles_entry = "CC1=CCC[C@H]2[C@](C)(Cc3cc(O)ccc3O)[C@@H](C)CC[C@]12C"
result = "inactive"

[[record]]
smiles_entry = "COC1=CC(=O)C=C(C[C@]2(C)[C@@H](C)CC[C@]3(C)C(C)=CCC[C@@H]23)C1=O"
result = "50 µg/mL"

[[record]]
smiles_entry = "CC1=CCC[C@H]2[C@](C)(CC3=CC(=O)C(SCC(C)C)=CC3=O)[C@@H](C)CC[C@]12C"
result = "25 µg/mL"

[[record]]
smiles_entry = "CCCCSC1=CC(=O)C(C[C@]2(C)[C@@H](C)CC[C@]3(C)C(C)=CCC[C@@H]23)=CC1=O"
result = "inactive"

[[record]]
smiles_entry = "CC1=CCC[C@H]2[C@](C)(CC3=CC(=O)C4=C(SCCS4)C3=O)[C@@H](C)CC[C@]12C"
result = "100 µg/mL"

[[record]]
smiles_entry = "CC1=CCC[C@H]2[C@](C)(CC3=CC(=O)C(Sc4ccccc4)=CC3=O)[C@@H](C)CC[C@]12C"
result = "inactive"

[[record]]
smiles_entry = "CC1=CCC[C@H]2[C@](C)(CC3=CC(=O)C=CC3=O)[C@@H](C)CC[C@]12C"
result = "25 µg/mL"

[[record]]
smiles_entry = "CNC1=CC(=O)C(C[C@]2(C)[C@@H](C)CC[C@]3(C)C(C)=CCC[C@@H]23)=CC1=O"
result = "inactive"

